Data provenance is ChEMBL document CHEMBL1137782.

target: Testis-specific serine/threonine-protein kinase 1 (Homo sapiens, UniProt Q9BXA7); assay: Inhibition of TSSK1-catalyzed phosphorylation of AALVRQMSVAFFFK substrate by LC-MS based HTP assay in absence of Pep8-(O2)
REPORTED_ENDPOINT: IC50 (µM)
The reply should be a number in µM, with the unit left off.

IN: Fill in reported IC50 for this entry: O=C(c1ccc(-c2ccc(C(=O)C(O)S(=O)(=O)O)cc2)cc1)C(O)S(=O)(=O)O (stereo unspecified)
OUT: 14.4

* * *

Biological target: Testis-specific serine/threonine-protein kinase 1 (Homo sapiens, UniProt Q9BXA7)
Sequence (Q9BXA7 whole entry): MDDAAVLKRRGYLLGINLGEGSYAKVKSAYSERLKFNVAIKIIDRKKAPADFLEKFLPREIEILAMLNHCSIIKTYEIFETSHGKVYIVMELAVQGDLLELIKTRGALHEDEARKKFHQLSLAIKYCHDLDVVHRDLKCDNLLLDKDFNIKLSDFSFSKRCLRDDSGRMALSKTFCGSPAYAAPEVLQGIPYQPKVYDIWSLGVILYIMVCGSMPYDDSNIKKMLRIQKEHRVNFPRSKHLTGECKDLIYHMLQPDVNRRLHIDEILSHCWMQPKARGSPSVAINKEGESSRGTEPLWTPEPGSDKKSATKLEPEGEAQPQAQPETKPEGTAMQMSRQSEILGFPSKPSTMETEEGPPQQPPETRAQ
Test: Inhibition of TSSK1-catalyzed phosphorylation of AALVRQMSVAFFFK substrate by LC-MS based HTP assay in presence of Pep8-(O2)
REPORTED_ENDPOINT: IC50 (µM)
Give the quantity in µM, number only.

IN: Given CC(C)c1nc2cc3c(cc2[nH]c1=O)nc(-c1ccc(C(=O)O)cc1)n3CCCc1ccccc1 , respond with its IC50.
OUT: 38

IN: Given the compound O=C(c1ccc(-c2ccc(C(=O)C(O)S(=O)(=O)O)cc2)cc1)C(O)S(=O)(=O)O (centres undefined) , write its reported IC50.
OUT: 19.1

IN: Provide measured IC50 value, entry: CCCCCCCn1c(-c2ccc(O)c(O)c2)nc2cc3[nH]c(=O)c(C(C)C)nc3cc21
OUT: 72

IN: Entry CC(=O)Nc1ccc(-c2nc3cc4[nH]c(=O)c(C)nc4cc3n2CCCc2ccccc2)cc1 needs its IC50 filled in; supply it.
OUT: 98
